Where do the numbers come from? From PubChem BioAssay.

Assay: inhibitors of poly I:C-induced TLR3 signaling, primary screen, cell-based, poly I:C stimulus, luciferase, 10K MLSCN set (AID 602277)
Conditions: HEK293-TLR3 RL24 IRF3 luciferase reporter, at 10 µM, stronger effect = higher value
Outcome: 1 (yes) for inhibition of at least 10%; 0 (no) for anything lower.

As a guide, the following entries are already answered.
• Clc1ccc(Cl)c(-c2ccc(/C=N/c3ncn[nH]3)o2)c1 = 1 (yes)
• C=CCSc1nnc2n(-c3ccccc3OC)c(=O)c3c4c(sc3n12)CCC4 = 0 (no)
• COc1ccc2c(c1)C1(C)CC(C)(C)N2C(=O)N1c1ccccc1 (stereo not drawn) = 1 (yes)
• O=C1OC(c2ccc(O)cc2)(c2ccc(O)cc2)c2ccccc21 = 1 (yes)
• CCn1cc(C(=O)O)c(=O)c2cc(F)c(N3CCNCC3)cc21 = 1 (yes)
• CCc1cc2c(=O)c(-c3nc4ccccc4[nH]3)coc2cc1OC(=O)N1CCOCC1 = 0 (no)

Now let's try a different one.
Task: Say whether "Fc1ccc(-c2cnc[nH]2)cc1" shows inhibition of 10% or more.
Output: 0 (no)

----------
Measured nuclei count values are reported for all entries that follow.
Assay: inhibitors of E-selectin induction by TNFa, primary screen, imaging, HUVEC, immunofluorescence, MLSMR starter and 10KST1 sets (AID 487);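 further: 100% = median nuclei count of all wells on the same plate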
Conditions: HUVEC TNFalpha-induced E-selectin immunofluorescence imaging, at 2 µM; measured here: cell number, toxicity
Number in %, nothing else.

• c1cncc(-c2nnc3sc(-c4ccco4)nn23)c1 = 105
• CCn1cc(C(=O)O)c(=O)c2cc(F)c(N3CCNCC3)nc21 = 92.8
• O=C(O)CCc1cc(I)c(Oc2ccc(O)c(I)c2)c(I)c1 = 127
• Fc1cnc(N2CCOCC2)nc1NCc1ccccc1 = 156
• Cc1cc(C)n(-c2nnc(C)n2/N=C/c2ccco2)n1 = 159

Task: Recorded nuclei count of CCCCNC(=O)C(C#N)c1nc2ccccc2nc1N1CCN(Cc2ccc3c(c2)OCO3)CC1 (stereo not given) , please.
Output: 145

Task: Recorded nuclei count of COCCOC(=O)C1=C(C)NC(C)=C(C(=O)OC(C)C)C1c1cccc([N+](=O)[O-])c1 (stereo not given) , please.
Output: 122

Task: Recorded nuclei count of "CC(=O)OCC(=O)[C@@]1(OC(C)=O)[C@@H](C)C[C@H]2[C@@H]3C[C@H](F)C4=CC(=O)C=C[C@]4(C)[C@@]3(F)[C@@H](O)C[C@@]21C" , please.
Output: 116

Task: Recorded nuclei count of Cc1ccc(N(CC(O)CN2CCCC2)S(=O)(=O)c2ccc(C)cc2)cc1 (stereo not given) , please.
Output: 148

Task: Recorded nuclei count of CCOP(=O)(c1ccccc1)c1nc(-c2ccc(F)cc2)oc1N1CCCCC1 (stereo not given) , please.
Output: 136

----------
Experiment: inhibitors of larval lipid processing in zebrafish, primary screen, whole organism, PED6 fluorescence, gall bladder and intestine (AID 686);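 further: larvae 5 to 7 days old with five fish per well; signal comes from phospholipase A2 cleavage of quenched PED6 carried via bile; overnight exposure to compound and PED6 before scoring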
Settings: Zebrafish larvae PED6 lipid processing, fluorescence scoring; screened at 20 µM (by protocol)
Calls of active or inactive are those of the source.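 Rule for the calls: active = a full or partial loss of lipid-probe fluorescence in the fish gall bladder, intestine or both, judged by eye; inactive = no fluorescence loss, or compound toxic to the fish.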
Assign a class; possible classes are active, inactive

As a guide, the following entries are already answered.
* O=S1CCCSC1c1cccnc1 (centres undefined) | inactive
* N#Cc1c(N2CCOCC2)nc(N2CCCCC2)c2c1CCN(C1CCCCC1)C2 | inactive

Now let's try a different one.
Task: Please share the test call associated with "COC(=O)c1ccc(Cn2nnc3c(sc4nc(N5CCOCC5)c5c(c43)CCCC5)c2=O)o1" .
Output: active

----------
Measured z-score values are reported for all entries that follow.
Experiment: DUSP6 inhibitors restoring Erk phosphorylation by chemical complementation, primary imaging in DUSP6-transfected HeLa (AID 609)
Conditions: HeLa MKP-3 transfected, phospho-Erk imaging KS statistic; measured here: nuclear c-Myc green intensity z-score; at 10 µM; cells stimulated with TPA for 15 min
// response body must contain only the number

The examples below pair each entry with its known result.
* c1coc(-c2nnc3sc(Cc4cccs4)nn23)c1 | -1.26
* CC(C)C(=O)N1CCN(c2nc(-c3ccccc3)c3c(c2C#N)CCCC3)CC1 | 0.332

Task: Recorded z-score of "CC1(C)Cc2c(c(-c3ccccc3)nc(N3CCCC3)c2C(N)=O)CO1" , please.
Output: 1.34

----------
Experiment: inhibitors of Chlamydomonas gravitaxis, primary screen, whole organism, Chlamydomonas reinhardtii, WT vs cilia-less mutant, absorbance, 96-well (AID 463189);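 further: 0% = wild type cc124 cells in DMSO and 100% = ciliumless bld1 mutant cells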
Conditions: OD600 absorbance, 2 days, at 10 µM, stronger effect = higher value
measurement_type: inhibition (%)
Number in %, nothing else.

- CC(=O)Nc1n[nH]c(S(=O)(=O)Cc2ccc(Cl)cc2Cl)n1: 16.4
- N#Cc1c(-c2ccco2)cc(C2CC2)nc1N: -5.69
- c1coc(CNc2ncnc3ccccc23)c1: 12.9
- CCCCNC1=C(Br)C(=O)CC(C)(C)C1: 23.6
- COCc1cc(=O)[nH]c(Nc2nc3ccccc3o2)n1: 4.61

Task: Recorded inhibition of "O=C(O)c1cnn2c(C(F)(F)F)cc(-c3ccco3)nc12" , please.
Output: 17.4

Task: Recorded inhibition of "O=C(NCCO)c1cccc2c1C(=O)c1ccccc1-2" , please.
Output: 31.9

----------
Experiment: inhibitors of poly I:C-induced TLR3 signaling, primary screen, cell-based, poly I:C stimulus, luciferase, 10K MLSCN set (AID 602277)
Details: HEK293-TLR3 RL24 IRF3 luciferase reporter, at 10 µM, stronger effect = higher value
Outcome: condition met for inhibition of at least 20%; condition not met for anything lower.

As a guide, the following entries are already answered.
• CC(=O)Nc1ccc(S(=O)(=O)Nc2nc3n(n2)C(c2ccccc2)CC(=O)N3)cc1 (stereo not given) = condition not met
• Cc1nc2c(c(=O)n1CC1CCCO1)c1nc3ccccc3nc1n2CC(C)C (stereo not given) = condition met
• O=c1c2ccccc2[nH]c(=S)n1CCN1CCC(=C(c2ccc(F)cc2)c2ccc(F)cc2)CC1 = condition met

Now let's try a different one.
Task: Say whether "COc1ccc2c(c1)c(CC(=O)OCC(=O)O)c(C)n2C(=O)c1ccc(Cl)cc1" shows inhibition of 20% or more.
Output: condition met

----------
Target: Alpha-2C adrenergic receptor (Homo sapiens) (UniProt P18825)
Sequence (P18825 whole entry, looked up): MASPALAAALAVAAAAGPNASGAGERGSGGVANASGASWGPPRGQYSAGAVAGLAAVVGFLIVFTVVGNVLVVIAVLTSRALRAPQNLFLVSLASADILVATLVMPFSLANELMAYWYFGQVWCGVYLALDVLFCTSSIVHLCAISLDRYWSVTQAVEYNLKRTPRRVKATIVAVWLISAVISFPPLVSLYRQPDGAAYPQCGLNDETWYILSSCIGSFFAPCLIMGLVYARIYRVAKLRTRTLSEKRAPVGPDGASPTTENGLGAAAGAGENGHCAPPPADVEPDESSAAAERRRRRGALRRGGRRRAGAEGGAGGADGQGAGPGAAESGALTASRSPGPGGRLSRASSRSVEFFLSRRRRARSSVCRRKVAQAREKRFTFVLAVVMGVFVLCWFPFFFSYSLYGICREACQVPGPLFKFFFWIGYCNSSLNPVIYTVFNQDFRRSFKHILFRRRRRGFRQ
Test: modulators of alpha2C/GIRK thallium flux, primary screen, cell-based, HEK293 alpha2C/GIRK1/2 (AID 624);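 further: slope of fluorescence ratio to pre-addition baseline per second over 15 to 24 s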
Conditions: thallium flux BTC fluorescence, at 10 µM, actives lie on both sides
Response field label: string, one of Fulfilled (slope strictly below 0.006) or Not fulfilled.

* CC(C)Oc1ccc(/C(O)=C2/C(=O)C(=O)N(CCN(C)C)C2c2ccco2)cc1 (stereo not drawn) | Fulfilled

Task: State whether 0.006 exceeds slope recorded for "CC(=O)Nn1cnc2c(c1=O)C1(CCCC1)Cc1ccccc1-2" .
Output: Fulfilled

Task: State whether 0.006 exceeds slope recorded for "CNc1oc(-c2ccc(Cl)cc2)nc1C#N" .
Output: Not fulfilled

Task: State whether 0.006 exceeds slope recorded for "COC(=O)CSc1nc2sc3c(c2c(=O)n1C1CCCCC1)CCN(C)C3" .
Output: Fulfilled

Task: State whether 0.006 exceeds slope recorded for "COCCOC(=O)c1c(C)nc(SCC(=O)Nc2ccc(C)cc2)c(C#N)c1-c1ccco1" .
Output: Not fulfilled

Task: State whether 0.006 exceeds slope recorded for "CC(C)c1cc(NCCCN2CCOCC2)n2c(nc3ccccc32)c1C#N" .
Output: Fulfilled

Task: State whether 0.006 exceeds slope recorded for "CCOC(=O)c1nc(N)c(C(=O)OCC)[nH]1" .
Output: Fulfilled

Task: State whether 0.006 exceeds slope recorded for "Cc1nc(N2CCOCC2)c(C#N)c2c1COC(C)(C)C2" .
Output: Fulfilled

Task: State whether 0.006 exceeds slope recorded for "c1ccc(OCc2nn3c(-c4cccnc4)nnc3s2)cc1" .
Output: Not fulfilled

Task: State whether 0.006 exceeds slope recorded for COCCCn1c2nc3ccccc3nc2c2c(=O)n(CC3CCCO3)cnc21 (stereo not drawn) .
Output: Fulfilled

Task: State whether 0.006 exceeds slope recorded for "CC1(C)CC(=O)C(C=NCCN2CCN(C(=O)C34CC5CC(CC(C5)C3)C4)CC2)=C(O)C1" .
Output: Fulfilled

Task: State whether 0.006 exceeds slope recorded for CCOc1ccc(/C(O)=C2/C(=O)C(=O)N(c3nc(C)c(C)s3)C2c2ccco2)cc1 (stereo not drawn) .
Output: Fulfilled

Task: State whether 0.006 exceeds slope recorded for "CCCn1c(=O)[nH]c(=O)c2[nH]cnc21" .
Output: Fulfilled

Task: State whether 0.006 exceeds slope recorded for CN(C)c1ccc(C=NCCC2(O)CCOC(C)(C)C2)cc1 (stereo not drawn) .
Output: Fulfilled

----------
Measured inhibition values are reported for all entries that follow.
Molecular target: Dual specificity protein phosphatase 6 (Homo sapiens)
Test: DUSP6 inhibitors restoring Erk phosphorylation by chemical complementation, primary imaging in DUSP6-transfected HeLa (AID 609);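 on inhibition: phospho-Erk level distribution per well compared with pooled transfected vehicle control wells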
Conditions: HeLa MKP-3 transfected, phospho-Erk imaging KS statistic; at 10 µM; stronger effect = higher value; cells stimulated with TPA for 15 min
Number in %, nothing else.

The examples below pair each entry with its known result.
• CCCCCCSC1=C(C#N)C(c2ccccc2)CC(=O)N1 (stereo unspecified) = 18.9
• COC(=O)CSc1nc(N)c2c3c(sc2n1)CCCC3 = 4.37
• CCN1CCN(c2nc3c(C)cccn3c(=O)c2/C=C(\C#N)S(=O)(=O)c2ccc(C)cc2)CC1 = 1.6e-07

Task: Recorded inhibition of "Cc1cc(C)cc(-n2c3nc4ccccc4nc3c3c(=O)n(Cc4ccco4)cnc32)c1" , please.
Output: 3.5

Task: Recorded inhibition of "CCOC(=O)c1c(-c2cccs2)csc1NC(=O)CCCC(=O)O" , please.
Output: -5.81

Task: Recorded inhibition of CSc1nc2sc3c(c2c(=O)[nH]1)CCC(C)C3 (stereo unspecified) , please.
Output: 20.2
